pIC50: −log10 of the molar value.
Parameter 'readout' = pIC50; parameter 'system' = RmtA (Emericella nidulans, UniProt Q5VLE3).
Sequence (Q5VLE3 whole entry): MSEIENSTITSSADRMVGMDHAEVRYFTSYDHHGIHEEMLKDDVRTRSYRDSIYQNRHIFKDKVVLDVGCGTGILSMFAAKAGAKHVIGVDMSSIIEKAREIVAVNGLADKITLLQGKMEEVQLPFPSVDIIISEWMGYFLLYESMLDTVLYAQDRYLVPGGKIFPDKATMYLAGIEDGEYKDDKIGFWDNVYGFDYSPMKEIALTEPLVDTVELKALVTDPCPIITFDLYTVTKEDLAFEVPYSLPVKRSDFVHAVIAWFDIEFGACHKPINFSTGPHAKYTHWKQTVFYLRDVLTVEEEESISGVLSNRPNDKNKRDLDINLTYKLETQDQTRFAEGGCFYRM
measured metric: pIC50

O=C(/C=C/c1ccc(O)c(Br)c1)c1ccccc1; 3.72

[A] O=C(/C=C/c1ccc(O)c(Br)c1)/C=C/c1ccc(O)c(Br)c1
[B] O=C1/C(=C/c2cc(Br)c(O)c(Br)c2)Cc2ccccc2/C1=C\c1cc(Br)c(O)c(Br)c1
### Prompt Return label of the item with the larger pIC50. Candidates: A , B . Answer by quoting the chosen item's label.
### Response B

====

# tested on: RmtA (Emericella nidulans, UniProt Q5VLE3)
pIC50: −log10 of the molar value.
measured metric: pIC50

O=C1/C(=C/c2ccc(O)c(Br)c2)COC/C1=C\c1ccc(O)c(Br)c1; 3.88
O=C(/C=C/c1c(Br)cc(O)cc1Br)/C=C/c1c(Br)cc(O)cc1Br; 3.67
O=C(/C=C/c1cc(Br)c(O)c(Br)c1)/C=C/c1cc(Br)c(O)c(Br)c1; 4.16
O=C(/C=C/c1ccc(O)cc1Br)/C=C/c1ccc(O)cc1Br; 3.94
O=C(/C=C/c1cc(Br)c(O)c(Br)c1)c1ccc(C(=O)/C=C/c2cc(Br)c(O)c(Br)c2)cc1; 4.43

[1] CN1C/C(=C\c2cc(Br)c(O)c(Br)c2)C(=O)/C(=C/c2cc(Br)c(O)c(Br)c2)C1
[2] O=C1/C(=C/c2ccc(O)c(Br)c2)Cc2ccccc2/C1=C\c1ccc(O)c(Br)c1
[3] Cc1cc(/C=C/C(=O)/C=C/c2cc(C)c(O)c(C)c2)cc(C)c1O
[4] O=C(NCCCCNC(=O)c1cc(Br)c(O)c(Br)c1)c1cc(Br)c(O)c(Br)c1
### Prompt Arrange these compounds by their pIC50, starting with the largest number. As an answer, provide the labels arranged in the order called for.
### Response 1, 2, 3, 4

====

# tested on: NAD-dependent protein deacetylase sirtuin-2 (Homo sapiens) (UniProt Q8IXJ6)
# Sequence (Q8IXJ6 whole entry): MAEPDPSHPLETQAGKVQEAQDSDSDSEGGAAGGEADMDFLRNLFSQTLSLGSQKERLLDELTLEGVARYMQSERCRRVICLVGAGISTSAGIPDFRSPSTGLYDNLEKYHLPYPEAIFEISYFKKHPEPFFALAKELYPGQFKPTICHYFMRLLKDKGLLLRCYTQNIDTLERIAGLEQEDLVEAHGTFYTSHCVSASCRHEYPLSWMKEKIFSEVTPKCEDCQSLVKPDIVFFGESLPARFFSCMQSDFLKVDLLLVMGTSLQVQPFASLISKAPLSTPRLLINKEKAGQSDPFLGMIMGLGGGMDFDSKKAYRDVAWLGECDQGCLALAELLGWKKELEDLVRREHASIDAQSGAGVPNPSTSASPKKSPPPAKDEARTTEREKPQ
# assay info: Inhibition of human SIRT2 at 25 uM
measured metric: inhibition (%)

The following molecules have reported results that may help.
O=C(/C=C/c1ccc(O)c(Br)c1)/C=C/c1cc(Br)c(O)c(Br)c1; 65
CN1C/C(=C\c2cc(Br)c(O)c(Br)c2)C(=O)/C(=C/c2cc(Br)c(O)c(Br)c2)C1; 64
O=C1/C(=C/c2cc(Br)c(O)c(Br)c2)COC/C1=C\c1cc(Br)c(O)c(Br)c1; 67
O=C(/C=C/c1cc(Br)c(O)c(Br)c1)c1ccc(C(=O)/C=C/c2cc(Br)c(O)c(Br)c2)cc1; 56
O=C(/C=C/c1ccc(O)c(Br)c1)c1cc(Br)c(O)c(Br)c1; 38
O=C(/C=C/c1cc(Br)c(O)c(Br)c1)/C=C/c1cc(Br)c(O)c(Br)c1; 100

[1] O=C(Nc1cc(Br)c(O)c(Br)c1)c1cccc(C(=O)Nc2cc(Br)c(O)c(Br)c2)c1
[2] O=C(/C=C/c1cc(Br)c(O)c(Br)c1)CC(=O)/C=C/c1cc(Br)c(O)c(Br)c1
### Prompt Return label of the item with the larger inhibition. Candidates: 1 , 2 . Answer by quoting the chosen item's label.
### Response 2

[1] O=C(/C=C/c1cc(Br)c(O)c(Br)c1)c1cc(Br)c(O)c(Br)c1
[2] O=C(Nc1cccc(NC(=O)c2cc(Br)c(O)c(Br)c2)c1)c1cc(Br)c(O)c(Br)c1
### Prompt Return label of the item with the larger inhibition. Candidates: 1 , 2 . Answer by quoting the chosen item's label.
### Response 1
(1: 37%, 2: 0%)
